# credit: patent US20250290117A1

- Tested on: pathogens of clinical samples
- method.summary: Molecular phenotypic antimicrobial susceptibility test of clinical samples, direct PCR without a separate DNA purification step (Table 6)
- Type: cell-based
- assay.conditions: M. morganii, clinical sample of r70-r84, Ct control avg 11.677
- Source text: Detection of Molecular Phenotypic Antimicrobial Susceptibility. Disclosed herein are the methods for the detection of phenotypic antimicrobial susceptibility via molecular methods. […] Nucleic Acid Amplification of Antimicrobial Agent Exposed Pathogens. […] Next, the specimen may undergo a polymerase chain reaction (PCR) testing protocol, whereby a semi-quantitative PCR method is utilized. […]
Hi there, I'd appreciate the recorded Ct for every entry that follows.
Give bare numbers.

Study these solved cases before continuing.
C[C@@H](O)[C@H]1C(=O)N2C(C(=O)O)=C(S[C@@H]3CN[C@H](C(=O)N(C)C)C3)[C@H](C)[C@H]12    29.381
CN(C)[C@@H]1C(O)=C(C(N)=O)C(=O)[C@@]2(O)C(O)=C3C(=O)c4c(O)cccc4[C@@](C)(O)[C@H]3C[C@@H]12    12.206
CO/N=C(\C(=O)N[C@@H]1C(=O)N2C(C(=O)O)=C(CSc3nc(=O)c(=O)[nH]n3C)CS[C@H]12)c1csc(N)n1    28.625

Consider the additional compound presented here.
INPUT: In one line, give reported Ct of the entry C[C@H]1COc2c(N3CCN(C)CC3)c(F)cc3c(=O)c(C(=O)O)cn1c23 .
OUTPUT: 29.614

====

Hi there, I'd appreciate the recorded Ct for every entry that follows.
- Tested on: pathogens of clinical samples
- method.summary: Molecular phenotypic antimicrobial susceptibility test of clinical samples, direct PCR without a separate DNA purification step (Table 6)
- Assay type: cell-based
- assay.conditions: S. aureus, clinical sample of r85-r92, Ct control avg 20.309
Answers are plain numbers.

C[C@H]1COc2c(N3CCN(C)CC3)c(F)cc3c(=O)c(C(=O)O)cn1c23    16.32

For every item in the list below, what is its measured Ct?
1. CN(C)[C@@H]1C(O)=C(C(N)=O)C(=O)[C@@]2(O)C(O)=C3C(=O)c4c(O)cccc4[C@@](C)(O)[C@H]3C[C@@H]12
2. CO[C@@]1(NC(=O)Cc2cccs2)C(=O)N2C(C(=O)O)=C(COC(N)=O)CS[C@@H]21
3. O=C1CN(/N=C/c2ccc([N+](=O)[O-])o2)C(=O)N1
4. CN[C@H](CC(C)C)C(=O)N[C@H]1C(=O)N[C@@H](CC(N)=O)C(=O)N[C@H]2C(=O)N[C@H]3C(=O)N[C@H](C(=O)N[C@H](C(=O)O)c4cc(O)cc(O)c4-c4cc3ccc4O)[C@H](O)c3ccc(c(Cl)c3)Oc3cc2cc(c3O[C@@H]2O[C@H](CO)[C@@H](O)[C@H](O)[C@H]2O[C@H]2C[C@](C)(N)[C@H](O)[C@H](C)O2)Oc2ccc(cc2Cl)[C@H]1O

OUTPUT:
[22.653, 20.586, 32.477, 21.258]

====

- Tested on: Escherichia coli
- method.summary: Molecular phenotypic antimicrobial susceptibility test (extraction or DNA purification prior to PCR)
- Type: cell-based
- assay.conditions: E. coli isolate 1, Ct at control (average) 21.238
Field: label. Allowed values: TRUE (Ct at Sensitive Breakpoint < 30) or FALSE (Ct at Sensitive Breakpoint >= 30).

Use these answered entries as a reference point.
CC(C)(O/N=C(\C(=O)N[C@@H]1C(=O)N2C(C(=O)[O-])=C(C[n+]3ccccc3)CS[C@H]12)c1csc(N)n1)C(=O)O [Ceftazidime]    TRUE
O=C(O)c1cn(C2CC2)c2cc(N3CCNCC3)c(F)cc2c1=O [Ciprofloxacin]    TRUE
O=C1CN(/N=C/c2ccc([N+](=O)[O-])o2)C(=O)N1 [Nitrofurantoin]    FALSE

INPUT: Record C[C@@H](O)[C@H]1C(=O)N2C(C(=O)O)=C(S[C@@H]3CN[C@H](C(=O)N(C)C)C3)[C@H](C)[C@H]12 [Meropenem] : is its Ct at Sensitive Breakpoint strictly below 30?
OUTPUT: FALSE

INPUT: Record CO/N=C(\C(=O)N[C@@H]1C(=O)N2C(C(=O)O)=C(CSc3nc(=O)c(=O)[nH]n3C)CS[C@H]12)c1csc(N)n1 [Ceftriaxone] : is its Ct at Sensitive Breakpoint strictly below 30?
OUTPUT: TRUE

INPUT: Record Cc1nnc(SCC2=C(C(=O)O)N3C(=O)[C@@H](NC(=O)Cn4cnnn4)[C@H]3SC2)s1 [Cefazolin] : is its Ct at Sensitive Breakpoint strictly below 30?
OUTPUT: TRUE

INPUT: Record C[C@H]1COc2c(N3CCN(C)CC3)c(F)cc3c(=O)c(C(=O)O)cn1c23 [Levofloxacin] : is its Ct at Sensitive Breakpoint strictly below 30?
OUTPUT: TRUE
